Just for reference, PubChem BioAssay AID2060485 is where these values come from.

# Test system: A375 multi-cell spheroids with HUVEC/MSC, viability
# method notes: Anticancer human tumor A375 cell line growth inhibition [GQUAD];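 further: spheroids exposed to compounds for seven days before readout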
# conditions used: second compound 3.16 µM; first compound 0.316 µM; stronger effect = lower value
One threshold, 20%, splits the recorded viability, T/C values: lower ones are class 1, equal or higher ones are class 0.

* COc1cccc2c1C(=O)c1c(O)c3c(c(O)c1C2=O)CC(O)(C(=O)CO)CC3OC1CC(N)C(O)C(C)O1 (stereo not drawn) + CN(C)c1ccc(Nc2c3ccc(NC(=O)CCN4CCCC4)cc3nc3cc(NC(=O)CCN4CCCC4)ccc23)cc1 | class 0
* Cc1[nH]c2ccccc2c1CCNCc1ccc(/C=C/C(=O)NO)cc1 + Cc1[nH]c2ccc(F)cc2c1-c1nc2c3cccnc3c3ncccc3c2[nH]1 | class 1
* O=C(c1cc(Cc2n[nH]c(=O)c3ccccc23)ccc1F)N1CCN(C(=O)C2CC2)CC1 + Cc1[nH]c2ccc(F)cc2c1-c1nc2c3cccnc3c3ncccc3c2[nH]1 | class 0
* CC1COCCN1c1cc(C2(O)CC3CCC(C2)O3)c2cnn(-c3ccn[nH]3)c2n1 (stereo not drawn) + Cc1cnc(CNC(=O)c2c(=O)c3ccc(N4CCCN(C)CC4)nc3n3c2sc2ccccc23)cn1 | class 0
* CC[C@@]1(O)C(=O)OCc2c1cc1n(c2=O)Cc2cc3c(CN(C)C)c(O)ccc3nc2-1 + Cc1[nH]c2ccc(F)cc2c1-c1nc2c3cccnc3c3ncccc3c2[nH]1 | class 1
* COc1ccc([C@@H](O)c2cc(-c3ncnc4cc(N5CCOCC5)ccc34)c(F)cc2Cl)nn1 + Cc1[nH]c2ccc(F)cc2c1-c1nc2c3cccnc3c3ncccc3c2[nH]1 | class 0
* CCc1c2c(nc3ccc(O)cc13)-c1cc3c(c(=O)n1C2)COC(=O)[C@]3(O)CC + Cc1[nH]c2ccc(F)cc2c1-c1nc2c3cccnc3c3ncccc3c2[nH]1 | class 1
* Nc1ccn(C2OC(CO)C(O)C2(F)F)c(=O)n1 (stereo not drawn) + Cc1cnc(CNC(=O)c2c(=O)c3ccc(N4CCCN(C)CC4)nc3n3c2sc2ccccc23)cn1 | class 1
* Cc1cccc(N(C)C(=O)C2C(O)CCN2c2nc(C)cc(C(F)(F)F)c2C#N)c1 (stereo not drawn) + Cc1cnc(CNC(=O)c2c(=O)c3ccc(N4CCCN(C)CC4)nc3n3c2sc2ccccc23)cn1 | class 0
* O=c1[nH]cc(F)c(=O)[nH]1 + CN(C)c1ccc(Nc2c3ccc(NC(=O)CCN4CCCC4)cc3nc3cc(NC(=O)CCN4CCCC4)ccc23)cc1 | class 0
* CC1COCCN1c1cc(C2(O)CC3CCC(C2)O3)c2cnn(-c3ccn[nH]3)c2n1 (stereo not drawn) + Cc1[nH]c2ccc(F)cc2c1-c1nc2c3cccnc3c3ncccc3c2[nH]1 | class 1
* CC1COCCN1c1cc(C2(S(C)(=N)=O)CC2)nc(-c2ccnc3[nH]ccc23)n1 (stereo not drawn) + CN(C)c1ccc(Nc2c3ccc(NC(=O)CCN4CCCC4)cc3nc3cc(NC(=O)CCN4CCCC4)ccc23)cc1 | class 0
* C=CCn1c(=O)c2cnc(Nc3ccc(N4CCN(C)CC4)cc3)nc2n1-c1cccc(C(C)(C)O)n1 + CN(C)c1ccc(Nc2c3ccc(NC(=O)CCN4CCCC4)cc3nc3cc(NC(=O)CCN4CCCC4)ccc23)cc1 | class 0
* C#Cc1c(F)ccc2cc(O)cc(-c3ncc4c(N5CC6CCC(C5)N6)nc(OCC56CCCN5CC(F)C6)nc4c3F)c12 (stereo not drawn) + CN(C)c1ccc(Nc2c3ccc(NC(=O)CCN4CCCC4)cc3nc3cc(NC(=O)CCN4CCCC4)ccc23)cc1 | class 0
* CC(=O)O[C@H]1C(=O)[C@@]2(C)[C@H]([C@H](OC(=O)c3ccccc3)[C@]3(O)C[C@H](OC(=O)[C@H](O)[C@@H](NC(=O)c4ccccc4)c4ccccc4)C(C)=C1C3(C)C)[C@]1(OC(C)=O)CO[C@@H]1C[C@@H]2O + CN(C)c1ccc(Nc2c3ccc(NC(=O)CCN4CCCC4)cc3nc3cc(NC(=O)CCN4CCCC4)ccc23)cc1 | class 1
* CCCS(=O)(=O)Nc1ccc(F)c(C(=O)c2c[nH]c3ncc(-c4ccc(Cl)cc4)cc23)c1F + CN(C)c1ccc(Nc2c3ccc(NC(=O)CCN4CCCC4)cc3nc3cc(NC(=O)CCN4CCCC4)ccc23)cc1 | class 1
* CCc1c2c(nc3ccc(O)cc13)-c1cc3c(c(=O)n1C2)COC(=O)[C@]3(O)CC + Cc1cnc(CNC(=O)c2c(=O)c3ccc(N4CCCN(C)CC4)nc3n3c2sc2ccccc23)cn1 | class 1
* C=CCn1c(=O)c2cnc(Nc3ccc(N4CCN(C)CC4)cc3)nc2n1-c1cccc(C(C)(C)O)n1 + Cc1cnc(CNC(=O)c2c(=O)c3ccc(N4CCCN(C)CC4)nc3n3c2sc2ccccc23)cn1 | class 0
